The reported measurements were obtained from patent US8642065B2.

# Tested on: MSCs
# Protocol details: Relative potency: ALP assay after short exposure times, then basal media to assay completion
# Format: cell-based, human
# Test parameters: MSCs, 4 hr exposure, then basal media; read-out: EC50 4 hr.

- Compound: "CCC(=O)O[C@]1(C(=O)SCF)[C@H](C)C[C@H]2[C@@H]3C[C@H](F)C4=CC(=O)C=C[C@]4(C)[C@@]3(F)[C@@H](O)C[C@@]21C [Fluticasone propionate]"
  Measurement unit: "nM"
  EC50: 0.0422

* * *

# System: MSCs
# Protocol details: Relative potency: ALP assay after short exposure times, then basal media to assay completion
# Format: cell-based, human
# Test parameters: Homo sapiens; MSCs, 1 hr exposure, then basal media; read-out: EC50 1 hr.
Recorded metric: EC50 (nM)

- Compound: "CC1(C)O[C@@H]2C[C@H]3[C@@H]4CCC5=CC(=O)CC[C@]5(C)[C@@]4(F)[C@@H](O)C[C@]3(C)[C@]2(C(=O)CCl)O1 [Halcinonide]"
  Measurement unit: "nM"
  Value measured: 2.29
- Compound: "CCC(=O)O[C@]1(C(=O)CCl)[C@@H](C)C[C@H]2[C@@H]3CCC4=CC(=O)C=C[C@]4(C)[C@@]3(F)[C@@H](O)C[C@@]21C [Clobetasol propionate]"
  Measurement unit: "nM"
  Value measured: 0.0605
- Compound: "CCCC1O[C@@H]2C[C@H]3[C@@H]4CCC5=CC(=O)C=C[C@]5(C)[C@H]4[C@@H](O)C[C@]3(C)[C@]2(C(=O)CO)O1 (stereo partly drawn) [Budesonide]"
  Measurement unit: "nM"
  Value measured: 47.9
